conditions: microsomes
Experimental endpoint: Human Liver Microsome Stability (µL/min/mg)
Answer format: numeric, µL/min/mg implied, no suffix.

Here's what some known entries look like.
Cc1cc(S(=O)(=O)N2CC[C@H]2C(=O)Nc2ccc(OCCN(C)C)c(Cl)c2)c2[nH]ncc2c1 [Example 168]: 1
CC(=O)N1CCOc2cc(NC(=O)CN(C)S(=O)(=O)c3cc(C)cc4cn[nH]c34)ccc21: 18
Cc1cc(S(=O)(=O)N2CC[C@H]2C(=O)Nc2ccc3c(c2)OCCN3C2COC2)c2[nH]c(C#N)cc2c1: 111

Query block: I have this molecule here, CCc1ccc(NC(=O)CN(C)S(=O)(=O)c2cc(C)cc3cc(C#N)[nH]c23)cc1Cl , and I need its recorded Human Liver Microsome Stability.
Result block: 210

Query block: I have this molecule here, Cc1cc(S(=O)(=O)N2CC[C@H]2C(=O)Nc2ccn(C)c(=O)c2)c2[nH]ncc2c1 , and I need its recorded Human Liver Microsome Stability.
Result block: -8

Query block: I have this molecule here, COc1ccc(NC(=O)CN(C)S(=O)(=O)c2cc(C)cc3c2NC(=O)C3)cc1Cl , and I need its recorded Human Liver Microsome Stability.
Result block: 490

====

Listed molecules paired with reported IC50
target: Mtb Lpd (Mycobacterium tuberculosis (strain ATCC 25618 / H37Rv), UniProt P9WHH9); format: biochemical; conditions: read-out: LPD IC50
Answer format: numeric, nM implied, no suffix.

Here's what some known entries look like.
Cc1cc2c(c(S(=O)(=O)N(C)CC(=O)Nc3ccc(N4CCCCC4)c(C)c3)c1)CC=C2 [Example 11]: 34.1
Cc1cc(S(=O)(=O)N(C)CC(=O)Nc2ccn(C)c(=O)c2)c2[nH]c(C)cc2c1 [Example 134]: 963
Cn1ccc(NC(=O)[C@@H]2CCN2S(=O)(=O)c2cc(C=O)cc3c(F)n[nH]c23)cc1=O [Example 186]: 1040
Cc1cc(S(=O)(=O)N(C)CC(=O)Nc2ccc3ccccc3n2)c2n[nH]cc2c1 [Example 64]: 33.5
Cc1cc(S(=O)(=O)N(C)CC(=O)Nc2ccn3cccc3c2)c2[nH]ncc2c1 [Example 46]: 6.7

Could you now look at the following molecule, please?
Query block: I have this molecule here, Cc1cc(S(=O)(=O)N(C)CC(=O)Nc2ccc3c(c2)OCCN3CC(C)(C)O)c2[nH]ncc2c1 [Example 146] , and I need its recorded IC50.
Result block: 26

====

biological target: Mtb Lpd (Mycobacterium tuberculosis (strain ATCC 25618 / H37Rv)); format: biochemical; conditions: read-out: LPD IC50
Experimental endpoint: log10 of IC50 (log10 of the value in nM)
Units before log transform: nM; reported quantity: IC50; transform: log10.

Here's what some known entries look like.
Cc1cc(S(=O)(=O)N(C)CC(=O)N[C@@H]2CCCOC2)c2[nH]ncc2c1: 2.26
Cc1cc(S(=O)(=O)N2CC[C@H]2C(=O)Nc2ccc3c(c2)N(C)CCO3)c2[nH]ncc2c1: 1.55
Cc1cc(S(=O)(=O)N2CC[C@H]2C(=O)Nc2ccc3ccncc3c2)c2[nH]ncc2c1: 1.71

Query block: I have this compound here, Cc1cc(S(=O)(=O)N(C)CC(=O)Nc2ccc3c(c2)OC(C)(C)C(=O)N3C)c2n[nH]cc2c1 , and I need its recorded log10 of IC50.
Result block: 1.28

Query block: I have this compound here, Cn1ccc(NC(=O)[C@@H]2CCN2S(=O)(=O)c2cc(Br)cc3c(F)n[nH]c23)cc1=O , and I need its recorded log10 of IC50.
Result block: 2.26

Query block: I have this compound here, Cc1cc(S(=O)(=O)N(C)CC(=O)Nc2nc3c(s2)CCN(C)C3)c2n[nH]cc2c1 , and I need its recorded log10 of IC50.
Result block: 1.40

Query block: I have this compound here, Cc1cc(S(=O)(=O)N2CC[C@H]2C(=O)NC2COC2)c2[nH]ncc2c1 , and I need its recorded log10 of IC50.
Result block: 2.45

Query block: I have this compound here, Cc1cc(S(=O)(=O)N2CC[C@H]2C(=O)Nc2ccc3c(c2)OCCN3C2CCOCC2)c2n[nH]cc2c1 , and I need its recorded log10 of IC50.
Result block: 1.58

Query block: I have this compound here, Cc1cc(S(=O)(=O)N2CC[C@H]2C(=O)Nc2ccn(C)c(=O)c2)c2[nH]c(C#N)cc2c1 , and I need its recorded log10 of IC50.
Result block: 2.13

Query block: I have this compound here, Cc1cc(S(=O)(=O)N2CC[C@@H](C(=O)Nc3ccc(N4CCOCC4)c(Cl)c3)C2)c2n[nH]cc2c1 , and I need its recorded log10 of IC50.
Result block: 1.54

====

Listed molecules paired with reported IC50
biological target: Mtb Lpd (Mycobacterium tuberculosis (strain ATCC 25618 / H37Rv)); type: biochemical; details: 30 min preincubation; read-out: LPD IC50 (μM) w/ 30 min preincubation

CC#CCN(C)C(=O)CN(C)S(=O)(=O)c1cc(C)cc2cc(C#N)[nH]c12: 0.368 µM
Cc1cc(S(=O)(=O)N(C)CC(=O)Nc2cccc(N3CCCCC3=O)c2)c2[nH]c(C#N)cc2c1: 0.03 µM
Cc1cc(S(=O)(=O)N(C)CC(=O)Nc2ccn3nccc3c2)c2[nH]c(C#N)cc2c1: 0.019 µM
Cc1cc(S(=O)(=O)N(C)CC(=O)Nc2ccc3c(c2)CCCO3)c2[nH]c(C#N)cc2c1: 0.015 µM
Cc1cc(S(=O)(=O)N(C)CC(=O)Nc2cc(=O)n3c(n2)CCCC3)c2[nH]c(C#N)cc2c1: 0.022 µM
COc1ccc(NC(=O)CN(C)S(=O)(=O)c2cc(C)cc3cc(C#N)[nH]c23)cc1Cl: 0.02 µM
CN(CC(=O)Nc1ccn(C)c(=O)c1)S(=O)(=O)c1cc(Cl)cc2cc(C#N)[nH]c12: 0.035 µM

Could you now look at the following molecule, please?
Query block: Recall the recorded IC50 for COc1cc(NC(=O)CN(C)S(=O)(=O)c2cc(C)cc3cc(C#N)[nH]c23)ccn1 with Mtb Lpd (Mycobacterium tuberculosis (strain ATCC 25618 / H37Rv)) and state it.
Result block: 0.021 µM

====

molecular target: Mtb Lpd (Mycobacterium tuberculosis (strain ATCC 25618 / H37Rv), UniProt P9WHH9); type: biochemical; settings: read-out: LPD IC50
Listed molecules paired with reported log10 IC50
Units before log transform: nM; reported quantity: IC50; transform: log10.

CNCc1n[nH]c2c(S(=O)(=O)N(C)CC(=O)Cc3ccn(C)c(=O)c3)cc(C)cc12: 2.11
Cc1cc(S(=O)(=O)N(C)CC(=O)NC2CCN(C)C(=O)C2)c2n[nH]cc2c1 (stereo not shown): 2.17
Cc1cc(S(=O)(=O)N(C)CC(=O)Nc2ccc3cnccc3c2)c2n[nH]cc2c1: 1.52
Cc1cc(S(=O)(=O)N2CCC(C(=O)Nc3ccn(C)c(=O)c3)C2)c2[nH]ncc2c1 (stereo not shown) [Example 97]: 1.62
Cc1cc(S(=O)(=O)N2CC[C@H]2C(=O)Nc2ccc3ncccc3c2)c2[nH]ncc2c1: 1.54
Cc1cc(S(=O)(=O)N(C)CC(=O)Nc2ccn(C3CC3)c(=O)c2)c2[nH]ncc2c1: 1.97
Cc1cc(S(=O)(=O)N(C)CC(=O)N[C@H]2CCCOC2)c2[nH]ncc2c1: 2.04
CN(CC(=O)Nc1ccc2c(c1)OCCN2C1CCOCC1)S(=O)(=O)c1cc(Cl)cc2cn[nH]c12: 1.53
CCc1cc(S(=O)(=O)N(C)CC(=O)Nc2ccn(C)c(=O)c2)c2n[nH]cc2c1: 1.70
Cn1ccc(NC(=O)[C@@H]2CCN2S(=O)(=O)c2cc(Cl)cc3c(F)n[nH]c23)cc1=O: 1.60

Could you now look at the following molecule, please?
Query block: Recall the recorded log10 IC50 for Cc1cc(S(=O)(=O)N(C)CC(=O)Nc2ccc3c(c2)OCCO3)c2[nH]ncc2c1 with Mtb Lpd (Mycobacterium tuberculosis (strain ATCC 25618 / H37Rv), UniProt P9WHH9) and state it.
Result block: 1.04

====

molecular target: Mtb Lpd (Mycobacterium tuberculosis (strain ATCC 25618 / H37Rv)); assay type: biochemical; details: read-out: LPD IC50
pIC50: −log10 of the molar value.
Please use satisfied whenever pIC50 is not below 7, and not satisfied whenever it is.

Please review the entries below; each comes with its answer.
Cc1cc(S(=O)(=O)N2CC[C@H]2C(=O)N[C@@H]2CCCOC2)c2[nH]ncc2c1: not satisfied
Cc1cc(S(=O)(=O)N(C)CC(=O)Nc2ccc3c(c2)N(C2CCOCC2)CCO3)c2[nH]ncc2c1: satisfied
C#CCNC(=O)CN(C)S(=O)(=O)c1cc(C)cc2cn[nH]c12: satisfied
CN(CC(=O)Nc1ccc2c(c1)OCCN2C1CCOCC1)S(=O)(=O)c1cc(Cl)cc2c(F)n[nH]c12: satisfied

Query block: Confirm if pIC50 reported for the compound Cc1cc(S(=O)(=O)N(C)CC(=O)Nc2nc3c(s2)NCCC3)c2n[nH]cc2c1 is 7 or above.
Result block: satisfied

Query block: Confirm if pIC50 reported for the compound Cc1cc(S(=O)(=O)N(C)CC(=O)NCc2cn(-c3ccccc3)nn2)c2[nH]ncc2c1 is 7 or above.
Result block: satisfied
